These measurements were taken from patent US8476197B2.

Listing of recorded Log P by entry.
details: pH 2.7
Marks after values point to notes of the source that are not given here.

These recorded examples may help you get a feel for the data.
CCONC(=O)C(C#N)=C(NC(C)c1nccs1)c1cccnc1Cl (centres unmarked) [Compound 1598] : 1.8^[a]
CCOC(=O)C(C#N)=C(NC(C)c1nccs1)c1ncc(Cl)cc1Cl (racemic) [Compound 225] : 3.11^[a]
COC(=O)C(C#N)=C(NC(C)c1nccs1)c1sc(C)nc1C(F)(F)F (centres unmarked) [Compound 17] : 2.78
CCOC(=O)C(C#N)=C(NC(C)CCCC(C)C)c1sccc1Br (centres unmarked) [Compound 928] : 5.36^[a]

Let us move to another entry and its Log P.
# get_value(readout='Log P', item= CCOC(=O)C(C#N)=C(Nc1ccc(C(C)C)cc1)c1cccnc1Cl [Compound 1154] )
4.08^[a]
